Here, each record is paired with measured log10 of XC50 data.
test system: Plasmodium falciparum; assay: GSK_TCMDC: Inhibition of Plasmodium falciparum 3D7 in whole erythrocytes, using parasite LDH activity as an index of growth.; assay type: functional, organism-based; conditions: Plasmodium falciparum, 3D7
endpoint: log10 of XC50 (log10 of the value in nM)

| molecule | log10 of XC50 |
| --- | --- |
| c1ccc(C2CCN(Cc3ccc(-c4c[nH]c5nc(NC6CCCC6)ncc45)cc3)CC2)cc1 | 3.00 |
| O=C(/C=C/c1ccc(Cl)c(Cl)c1)NC1CCC(CN2CCC(c3nc4cccnc4[nH]3)CC2)CC1 (centres undefined) | 3.09 |
| CCCc1cc(NCC)nc(Nc2ccc(C)cc2)n1 | 2.95 |
| Clc1ccc(CCNCCCCCCNCCc2ccc3c(c2)OCO3)cc1 | 3.24 |
| O=C(/C=C/c1ccc(Cl)c(Cl)c1)NCCCCCN1CCC(NC(=O)Nc2ccc(F)cc2F)CC1 | 2.87 |
| C=CCc1cccc(CN2CCC(c3cc(O)nc(-c4ccccn4)n3)CC2)c1O | 3.04 |
| CCCCCNC(=N)N/N=C/c1c[nH]c2ccc(OC)cc12 | 2.98 |
| S=C(NCCCCCN1CCC(c2c[nH]c3ccccc23)CC1)Nc1cccc(I)c1 | 2.93 |
| Cc1[nH]c(C)c(-c2ccc(-c3ccccc3F)nc2)c(=O)c1Br | 2.60 |
| Cc1[nH]c2ccc(NS(C)(=O)=O)cc2c1C1CCN(CCC2CCN(C(=O)/C=C/c3ccc(Cl)c(Cl)c3)CC2)CC1 | 2.93 |
| CC1CN(Cc2cccc(C#N)c2)CCN1c1ccc(NC(=O)c2cccs2)cc1 (centres undefined) | 2.83 |
| CCCCCc1cc(OCCN(C)C)cc2c1C(=O)CC(C)(C)O2 | 2.01 |
| Cc1cccc2nc(-c3cccc(-c4cccc(NC(=O)Nc5ccccc5)c4)c3)[nH]c12 | 2.14 |
| Cc1cc(N[C@@H](Cc2ccccc2)C(=O)NCc2cccs2)nc(NCCc2ccccn2)n1 | 3.11 |
| CCN(CC)CCN(Cc1ccc(-c2ccc(C(F)(F)F)cc2)nc1)C(=O)Cn1cc(Cc2cnn(C)c2)c(=O)n2nc(-c3ccccc3)cc12 | 3.00 |
| Cc1ccc(NC(=O)Nc2ccc(S(=O)(=O)c3ccc(NC(=O)Nc4ccc(C)c(Cl)c4)cc3)cc2)cc1Cl | 2.88 |
| O=C(NCc1ccc(Cl)c(Cl)c1)c1cc(CNC2CCNCC2)ccc1O | 2.93 |
| O=C(Cn1c(CCc2cccc(F)c2F)nc(=O)c2ccccc21)N(CCCN1CCCC1)Cc1ccc(-c2ccc(C(F)(F)F)cc2)cc1 | 2.97 |
| COc1cc2nc(NCCc3ccccc3)nc(NCc3cc(C)no3)c2cc1OC | 2.38 |
